B1: 5KPH (parent)
chain: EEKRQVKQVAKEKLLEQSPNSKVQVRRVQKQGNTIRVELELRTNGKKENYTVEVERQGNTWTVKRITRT

# Variants of: B1
# Test summary: folding stability dG (cDNA display proteolysis); higher = more stable
# Test settings: PBS, room temperature
Decide by folding stability dG: equal to or exceeding 3 kcal/mol means Fulfilled, less means Not fulfilled.

EEKRQVKQVAKEKLLEQSPNSKVQVRRVQKQGNTIRVELELRTNGKKENYTVEVERQGNEWTVKRITRT : Fulfilled
EEKRQVKQVAKEKLLEQSPNSKVQVRRVQKQGNTIRVELELRTNCKKENYTVEVERQGNTWTVKRITRT : Fulfilled

Okay, now this variant:
Can EEKRQVKQVAKEKLLEQSPNSKVQVRRVQKQGNTIRVELELRTNGKKENQTVEVERQGNTWTVKRITRT be said to have folding stability dG at or above 3 kcal/mol? Not fulfilled
